Item-by-item account of interaction score
tested_target: T1, P6-AA-1HGe-A
T1 chain: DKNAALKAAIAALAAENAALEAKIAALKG
protocol: two-hybrid library CCmax;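 note: natural log of median RNA to DNA barcode read ratio; higher means stronger binding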
condition_summary: mean of both orientations
// keep it numeric: no unit symbol after the value

Consider the worked cases shown below.
DENAALEASIAALSAKNAALKAEIAALEG [P5-AA-1HGe-S]; 1.91
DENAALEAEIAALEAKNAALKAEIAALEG [O5-AA]; 2.15
DENAALEAWIAALWAKNAALKAEIAALEG [P5-AA-1HGe-W]; 1.97

Qu. What value of interaction score has been recorded for this entry: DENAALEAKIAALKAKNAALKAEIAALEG [4H1401-AA]
Ans. 2.14

Qu. What value of interaction score has been recorded for this entry: DENAALEARIAALRAKNAALKAEIAALEG [P5-AA-1HGe-R]
Ans. 2.25

Qu. What value of interaction score has been recorded for this entry: DENAALEATIAALTAKNAALKAEIAALEG [P5-AA-1HGe-T]
Ans. 2.2

Qu. What value of interaction score has been recorded for this entry: DENAALEAMIAALMAKNAALKAEIAALEG [P5-AA-1HGe-M]
Ans. 2.5

Qu. What value of interaction score has been recorded for this entry: DENAALEAQIAALQAKNAALKAEIAALEG [P5-AA-1HGe-Q]
Ans. 2.25
